- Tested on: P. aeruginosa PAO1
- Assay type: cell-based, Pseudomonas aeruginosa
- run_conditions: UTBLP alone, plate with rifampicin
observable: MICUTBLP

Query :: Observed MICUTBLP on P. aeruginosa PAO1 for CCCCCCCC(=O)N[C@@H](CCCCN(C)C)C(=O)NCCCN(CCCNC(=O)[C@H](CCCCN(C)C)NC(=O)CCCCCCC)CC(=O)N[C@@H](CCCCN(C)C)C(N)=O [UTBLP 3] , please.
Result :: > 128 µg/mL

* * *

In this section we review reported MICUTBLP [MICcombo] values for a set of compounds.
- Tested on: P. aeruginosa PAO1
- Type: cell-based, Pseudomonas aeruginosa
- run_conditions: UTBLP in combination with niclosamide
Non-standard residues stand in square brackets, D forms with d. Residues, ends and D or L forms follow the SMILES beside them. *: point of attachment. Lys(Me3) = C[N+](C)(C)CCCC[C@H](N)C(=O)O; Octanoyl = CCCCCCCC(=O)*

compound	MICUTBLP [MICcombo]
CCCCCCCC(=O)NCCCC[C@H](NC(=O)CCCCCCC)C(=O)N[C@@H](CCCC[N+](C)(C)C)C(=O)N[C@@H](CCCC[N+](C)(C)C)C(=O)N[C@@H](CCCC[N+](C)(C)C)C(=O)N[C@@H](CCCC[N+](C)(C)C)C(N)=O [UTBLP 8] (Octanoyl-K(Octanoyl)[Lys(Me3)][Lys(Me3)][Lys(Me3)][Lys(Me3)]-NH2)	0.25 µg/mL
CCCCCCCC(=O)NCCCC[C@H](NC(=O)CCCCCCC)C(=O)N[C@@H](CCCCN)C(=O)N[C@@H](CCCCN)C(=O)N[C@@H](CCCCN)C(=O)N[C@@H](CCCCN)C(N)=O [UTBLP 5] (Octanoyl-K(Octanoyl)KKKK-NH2)	4 µg/mL
CCCCCCCC(=O)N[C@@H](CCCCNC)C(=O)NCCCN(CCCNC(=O)[C@H](CCCCNC)NC(=O)CCCCCCC)CC(=O)N[C@@H](CCCCNC)C(N)=O	0.25 µg/mL

Please find the next compound below.
Query :: # returns recorded MICUTBLP [MICcombo] (system: P. aeruginosa PAO1) for `CCCCCCCC(=O)N[C@@H](CCCCN(C)C)C(=O)NCCCN(CCCNC(=O)[C@H](CCCCN(C)C)NC(=O)CCCCCCC)CC(=O)N[C@@H](CCCCN(C)C)C(N)=O`
Result :: 0.25 µg/mL

* * *

- System: E. faecium ATCC 27270
- Format: cell-based, Enterococcus faecium
- run_conditions: chloramphenicol in combination with the UTBLP
Non-standard residues stand in square brackets, D forms with d. Residues, ends and D or L forms follow the SMILES beside them. *: point of attachment. Lys(Me2) = CN(C)CCCC[C@H](N)C(=O)O; Lys(Me) = CNCCCC[C@H](N)C(=O)O; Octanoyl = CCCCCCCC(=O)*
observable: MICchloramphenicol [MICcombo]
Record the result as number plus unit.

Recorded results for 2 compounds are shown here.
compound	tgt	observable	recorded_result
CCCCCCCC(=O)NCCCC[C@H](NC(=O)CCCCCCC)C(=O)N[C@@H](CCCCN(C)C)C(=O)N[C@@H](CCCCN(C)C)C(=O)N[C@@H](CCCCN(C)C)C(=O)N[C@@H](CCCCN(C)C)C(N)=O [UTBLP 7] (Octanoyl-K(Octanoyl)[Lys(Me2)][Lys(Me2)][Lys(Me2)][Lys(Me2)]-NH2)	E. faecium ATCC 27270	MICchloramphenicol [MICcombo]	4 µg/mL
CCCCCCCC(=O)NCCCC[C@H](NC(=O)CCCCCCC)C(=O)N[C@@H](CCCCNC)C(=O)N[C@@H](CCCCNC)C(=O)N[C@@H](CCCCNC)C(=O)N[C@@H](CCCCNC)C(N)=O [UTBLP 6] (Octanoyl-K(Octanoyl)[Lys(Me)][Lys(Me)][Lys(Me)][Lys(Me)]-NH2)	E. faecium ATCC 27270	MICchloramphenicol [MICcombo]	4 µg/mL

Now, please, on to the next compound.
Query :: GET /values?readout=MICchloramphenicol [MICcombo]&item= `CCCCCCCC(=O)N[C@@H](CCCCNC)C(=O)NCCCN(CCCNC(=O)[C@H](CCCCNC)NC(=O)CCCCCCC)CC(=O)N[C@@H](CCCCNC)C(N)=O`
Result :: 8 µg/mL
